Sourced from patent US7067277

- Assay system: human dopamine D1 receptor (human, UniProt P21728 1-446)
- Sequence (P21728 whole entry): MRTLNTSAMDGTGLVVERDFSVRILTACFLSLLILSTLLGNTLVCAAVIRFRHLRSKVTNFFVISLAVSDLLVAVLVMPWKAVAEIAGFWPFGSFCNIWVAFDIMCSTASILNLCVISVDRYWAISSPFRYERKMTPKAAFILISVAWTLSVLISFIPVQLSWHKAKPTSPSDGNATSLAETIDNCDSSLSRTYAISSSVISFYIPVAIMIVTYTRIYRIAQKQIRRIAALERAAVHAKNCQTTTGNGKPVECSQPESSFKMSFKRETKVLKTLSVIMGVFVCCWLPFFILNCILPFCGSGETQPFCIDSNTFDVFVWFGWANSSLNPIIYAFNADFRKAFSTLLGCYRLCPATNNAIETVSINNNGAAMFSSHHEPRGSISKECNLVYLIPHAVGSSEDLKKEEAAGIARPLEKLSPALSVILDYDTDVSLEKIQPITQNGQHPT
- Method summary: cell-based or functional assay
Measurement label: max Ca2+ signal, COS-7, FLIPR; 100 µM dopamine (fluorescence units)
Write the answer as a number in fluorescence units, unit excluded.

max Ca2+ signal, COS-7, FLIPR; 100 µM dopamine for Human Gαq/z5 (Ala→Ser substitution at position 171) (other) MTLESIMACCLSEEAKEARRINDEIERQLRRDKRDARRELKLLLLGTGESGKSTFIKQMRIIHGSGYSDEDKRGFTKLVYQNIFTAMQAMIRAMDTLKIPYKYEHNKAHAQLVREVDVEKVSAFENPYVDAIKSLWNDPGIQECYDRRREYQLSDSTKYYLNDLDRVADPSYLPTQQDVLRVRVPTTGIIEYPFDLQSVIFRMVDVGGQRSERRKWIHCFENVTSIMFLVALSEYDQVLVESDNENRMEESKALFRTIITYPWFQNSSVILFLNKKDLLEEKIMYSHLVDYFPEYDGPQRDAQAAREFILKMFVDLNPDSDKIIYSHFTCATDTENIRFVFAAVKDTILQLNLKYIGLC is 0
